Exercise: state measured TBIL for each of the substances provided.
assay protocol: Tolerability in Balb/c mice, plasma chemistry markers (Example 14)
Format: in vivo
condition description: male Balb/c mice, 50 mg/kg s.c. twice a week for four weeks (8 treatments), day 27
Strand notation (5' to 3'): a small letter for the sugar, then the base; units joined by * are phosphorothioate-linked, units joined directly phosphodiester-linked; [ ] holds rarer units or linkages, { } end groups; capitals alone tell only the bases. k = constrained ethyl (cEt); [5mC] = 5-methylcytosine; d = 2'-deoxy (DNA)
Please answer using a numeric value trailed by its unit.

Query string: Which measured TBIL value corresponds to 958596 (kA*kG*k[5mC]*dA*dG*dT*dT*dA*dA*dG*d[5mC]*dA*d[5mC]*kT*kT*kT; antisense) [compound 958596] ?
Result string: 0.23 mg/dL

Query string: Now give it for 958589 (kG*kT*kA*dA*dA*dG*dG*dA*dA*dG*dA*dT*d[5mC]*kT*k[5mC]*k[5mC]; antisense) [compound 958589] too.
Result string: 0.21 mg/dL

Query string: Also check 958497 (kA*kT*kA*dT*dG*dG*dA*dA*dA*dT*dT*dG*dT*k[5mC]*kT*k[5mC]) [compound 958497]
Result string: 0.24 mg/dL

Query string: How about this substance: 958739 (kA*kG*k[5mC]*dA*dA*dT*dA*dG*dA*dG*dT*dA*dA*k[5mC]*k[5mC]*kA; antisense) [compound 958739]
Result string: 0.21 mg/dL

Query string: Here is the next substance: 958534 (kT*kT*k[5mC]*dA*dG*d[5mC]*dA*dT*dA*dG*dA*dA*dG*kT*kA*kG; antisense) [compound 958534]
Result string: 0.33 mg/dL

Query string: Continue with 958622 (kG*kA*kT*dA*dT*dT*d[5mC]*d[5mC]*dG*d[5mC]*dA*dT*dT*kG*k[5mC]*k[5mC]; antisense) [compound 958622]
Result string: 0.24 mg/dL

---

assay protocol: Cynomolgus monkey tolerability, coagulation (Example 34)
Format: in vivo
condition description: cynomolgus monkeys, 35 mg/kg subcutaneously, day 44
Please go through the items and note down their FIB.
Quick note: give the figure in mg/dL, leave out the unit.

Query string: Please give the measured FIB for this substance: 1198605 (GTAATATTGCAATCTG; modified gapmer, further chemistry not given here) [compound 1198605]
Result string: 236

Query string: Also need 1197270 (TTAAAGTGTATGTCAG; cEt gapmer with 2'-OMe nucleoside, phosphorothioate, further chemistry not given here) [compound 1197270] , thanks.
Result string: 257

Query string: Next record, please: 1076453 (GTAATATTGCAATCTG; 3-10-3 cEt gapmer, further chemistry not given here) [compound 1076453]
Result string: 234

Query string: Can you check 1198623 (CTAAGTAAGGTTTCCC; modified gapmer, further chemistry not given here) [compound 1198623] next?
Result string: 229

---

System: Yap1 mRNA
assay protocol: Dose-dependent inhibition of human Yap1 in A-431 cells (Example 8, 10,000 cells per well, RTS4814)
Type: cell-based
condition description: 2000.00 nM; A-431 cells, 10,000 cells per well, free uptake, approximately 48 hours, RTS4814
Strand notation (5' to 3'): a small letter for the sugar, then the base; units joined by * are phosphorothioate-linked, units joined directly phosphodiester-linked; [ ] holds rarer units or linkages, { } end groups; capitals alone tell only the bases. k = constrained ethyl (cEt); [5mC] = 5-methylcytosine; d = 2'-deoxy (DNA)
attribute measured: Yap1 mRNA, % UTC (% UTC)
// note: answer is a bare numeric in % UTC

Query string: Looking for the measured Yap1 mRNA, % UTC of 1074446 (kA*kT*kG*dA*dT*dA*dG*d[5mC]*dA*d[5mC]*dT*dA*dG*kG*kA*kG; antisense) [compound 1074446] , can you help?
Result string: 3

Query string: Another substance: 1075876 (antisense kG*kT*kA*dT*dT*dT*dA*dT*dG*dA*dT*dG*dA*kT*kT*k[5mC]) [compound 1075876]
Result string: 5

Query string: Same lookup for 1075819 (kG*kT*kA*dT*dA*dT*d[5mC]*d[5mC]*dG*dT*dT*d[5mC]*dT*k[5mC]*kA*kT; antisense) [compound 1075819] , please.
Result string: 5

Query string: One more substance: 1076293 (kG*k[5mC]*kT*dT*dA*dT*dT*dA*dT*dT*dG*dA*dG*kT*kT*kA; antisense) [compound 1076293]
Result string: 5

Query string: Same for 1076070 (kA*kT*kT*dA*dG*dT*dA*dA*dT*dG*d[5mC]*dA*d[5mC]*kA*kG*kG; antisense) [compound 1076070]
Result string: 6

Query string: Cool, now 1074444 (kA*k[5mC]*kA*dT*dT*dT*dT*dT*dG*dG*d[5mC]*dT*dT*kG*kT*k[5mC]; antisense) [compound 1074444]
Result string: 4

---

Tested on: Yap1 mRNA
assay protocol: Dose-dependent inhibition of human Yap1 in A-431 cells (Example 8, 10,000 cells per well, RTS4814)
Assay type: cell-based
condition description: 125.0 nM; A-431 cells, 10,000 cells per well, free uptake, approximately 48 hours, RTS4814
Strand notation (5' to 3'): a small letter for the sugar, then the base; units joined by * are phosphorothioate-linked, units joined directly phosphodiester-linked; [ ] holds rarer units or linkages, { } end groups; capitals alone tell only the bases. k = constrained ethyl (cEt); [5mC] = 5-methylcytosine; d = 2'-deoxy (DNA)
So basically: Yap1 mRNA, % UTC at 30 % UTC or higher? That is YES. Lower than 30 % UTC? That is NO.

Query string: Please check the record 1076466 (kA*kT*kT*dT*dA*dG*dA*dG*d[5mC]*dT*dT*dA*dA*kG*kG*kA; antisense) [compound 1076466] and state if its Yap1 mRNA, % UTC is at or above 30 % UTC.
Result string: NO

Query string: How about this substance: 1075078 (antisense k[5mC]*kA*kA*d[5mC]*dT*dA*dT*dA*d[5mC]*dG*dG*dT*d[5mC]*k[5mC]*kA*kT) [compound 1075078]
Result string: YES

Query string: Now consider 1075465 (antisense kG*kA*kT*dT*dT*dA*dT*dT*dG*dA*dA*d[5mC]*dT*kG*kA*kG) [compound 1075465] and answer again.
Result string: YES

Query string: Also 1074290 (antisense k[5mC]*kT*kG*dA*d[5mC]*dT*dG*dA*dT*dT*d[5mC]*dT*d[5mC]*kT*kG*kG) [compound 1074290] , if possible.
Result string: NO

Query string: Try this substance next: 1076299 (k[5mC]*kG*kT*dT*dA*dT*dA*dA*dA*dG*dA*d[5mC]*d[5mC]*k[5mC]*kA*kA; antisense) [compound 1076299]
Result string: YES

Query string: Param item: 1074444 (kA*k[5mC]*kA*dT*dT*dT*dT*dT*dG*dG*d[5mC]*dT*dT*kG*kT*k[5mC]; antisense) [compound 1074444]
Result string: NO

---

Exercise: state measured Yap1 mRNA, % UTC for each of the substances provided.
Test system: Yap1 mRNA
assay protocol: Dose-dependent inhibition of human Yap1 in A-431 cells (Example 8, 10,000 cells per well, RTS4814)
Type: cell-based
condition description: 31.3 nM; A-431 cells, 10,000 cells per well, free uptake, approximately 48 hours, RTS4814
Strand notation (5' to 3'): a small letter for the sugar, then the base; units joined by * are phosphorothioate-linked, units joined directly phosphodiester-linked; [ ] holds rarer units or linkages, { } end groups; capitals alone tell only the bases. k = constrained ethyl (cEt); [5mC] = 5-methylcytosine; d = 2'-deoxy (DNA)
Reply numerically in % UTC, unit not repeated.

Query string: Request the reported Yap1 mRNA, % UTC associated with 1076549 (kG*kT*kG*d[5mC]*dA*dA*dA*dA*dT*dA*d[5mC]*d[5mC]*dT*kT*kT*kG; antisense) [compound 1076549]
Result string: 53

Query string: Do the same for 1075155 (kT*k[5mC]*kA*dT*dT*dA*dT*dA*dA*dT*dG*dG*dG*kA*kG*kG; antisense) [compound 1075155] please
Result string: 51

Query string: Entry 1075876 (antisense kG*kT*kA*dT*dT*dT*dA*dT*dG*dA*dT*dG*dA*kT*kT*k[5mC]) [compound 1075876] please
Result string: 47

Query string: Please answer likewise for 1076486 (kG*kA*kA*dA*d[5mC]*dG*dA*dA*dA*d[5mC]*dG*dG*dG*kA*kA*kA; antisense) [compound 1076486]
Result string: 84

Query string: 1074639 (antisense kT*kA*kG*dA*dT*dT*dT*dT*dG*dT*dA*dA*dT*kT*kG*kG) [compound 1074639] ?
Result string: 46

Query string: Then this substance: 1076327 (kG*kA*kT*dA*dA*dG*d[5mC]*dA*dA*dG*dG*dT*dT*k[5mC]*kT*k[5mC]; antisense) [compound 1076327]
Result string: 73

Every entry's value here was drawn from patent US11214803B2.
